IC50 values for the molecules below.
target: human p38 kinase alpha (Homo sapiens); construct: GST (N, cleaved yes); made in house; host or cells: E. coli DH10B; experiment: p38 kinase in vitro assay, phosphorylation of biotinylated PHAS-I with 32P-ATP; assay type: biochemical; conditions: in vitro P38-alpha kinase; read-out: P38 alpha kinase IC50

Here's what some known entries look like.
molecule.smiles: O=S(=O)(NCCCc1[nH]nc(-c2ccc(F)cc2)c1-c1ccncc1)c1ccc(Cl)c(Cl)c1
meas.value: 470 nM
//
molecule.smiles: O=C(c1ccccn1)N1CCC(c2[nH]nc(-c3ccc(F)cc3)c2-c2ccncc2)CC1
meas.value: < 100 nM

I am curious: what IC50 value has been reported for Cc1cccc(C)c1NC(=O)N1CCC(c2[nH]nc(-c3ccc(F)cc3)c2-c2ccncc2)CC1 ? < 100 nM

* * *

biological target: human p38 kinase alpha (Homo sapiens); construct: GST (N, cleaved yes); made in house; host or cells: E. coli DH10B; experiment: p38 kinase in vitro assay, phosphorylation of biotinylated PHAS-I with 32P-ATP; format: biochemical; conditions: in vitro P38-alpha kinase inhibition; read-out: P38 alpha kinase IC50
IC50 values for the compounds below.
Kindly answer with a numeric value in nM, unit omitted.

I am curious: what IC50 value has been reported for O=C(NCc1ccccc1)NC(Cc1ccccc1)c1[nH]nc(-c2ccc(F)cc2)c1-c1ccncc1 (stereo not drawn) [Example B-0770] ? 2300

I am curious: what IC50 value has been reported for CC(NS(=O)(=O)c1ccc(F)cc1)c1[nH]nc(-c2ccc(F)cc2)c1-c1ccncc1 (stereo not drawn) ? 220

I am curious: what IC50 value has been reported for CC(NC(=O)C1CCCC1)c1[nH]nc(-c2ccc(F)cc2)c1-c1ccncc1 (stereo not drawn) ? 1440

* * *

target: human p38 kinase alpha (Homo sapiens); construct: GST (N, cleaved yes); made in house; host or cells: E. coli DH10B; test: p38 kinase in vitro assay, phosphorylation of biotinylated PHAS-I with 32P-ATP; format: biochemical; details: @ 1.0 uM
P38 alpha kinase % inhib @ conc. values for the compounds below.
Kindly answer with a numeric value in % @, unit omitted.

Here's what some known entries look like.
molecule.smiles: COc1ccc(S(=O)(=O)NCCCc2[nH]nc(-c3ccc(F)cc3)c2-c2ccncc2)cc1
meas.value: 71.0

molecule.smiles: CCNC(=O)NCCCc1[nH]nc(-c2ccc(F)cc2)c1-c1ccncc1
meas.value: 89.0

molecule.smiles: CN(C)C(=O)NCCCc1[nH]nc(-c2ccc(F)cc2)c1-c1ccncc1
meas.value: 90.0

Give human p38 kinase alpha (Homo sapiens) P38 alpha kinase % inhib @ conc. for O=C(NCCCc1[nH]nc(-c2ccc(F)cc2)c1-c1ccncc1)Nc1ccccc1F 86.0

* * *

IC50 values for the compounds below.
target: human p38 kinase alpha (Homo sapiens, UniProt Q16539); construct: GST (N, cleaved yes); made in house; host or cells: E. coli DH10B; assay: p38 kinase in vitro assay, phosphorylation of biotinylated PHAS-I with 32P-ATP; assay type: biochemical; details: in vitro P38-alpha kinase inhibition; read-out: P38 alpha kinase IC50
Sequence (Q16539 whole entry): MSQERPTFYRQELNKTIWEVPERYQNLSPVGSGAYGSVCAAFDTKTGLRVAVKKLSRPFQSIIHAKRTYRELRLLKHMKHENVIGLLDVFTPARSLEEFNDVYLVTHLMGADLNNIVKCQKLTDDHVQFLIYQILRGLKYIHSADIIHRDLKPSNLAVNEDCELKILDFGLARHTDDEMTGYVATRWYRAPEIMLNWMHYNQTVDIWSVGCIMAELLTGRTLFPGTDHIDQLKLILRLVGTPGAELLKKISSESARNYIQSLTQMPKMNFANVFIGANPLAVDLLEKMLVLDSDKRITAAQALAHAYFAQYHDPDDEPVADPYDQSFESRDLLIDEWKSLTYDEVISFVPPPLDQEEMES
Kindly answer with a numeric value in µM, unit omitted.

Here's what some known entries look like.
compound: CNC(=O)CCC(NS(=O)(=O)Cc1ccccc1)c1[nH]nc(-c2ccc(F)cc2)c1-c1ccncc1 (stereo not shown)
study.system: human p38 kinase alpha (Homo sapiens, UniProt Q16539)
reading.unit: µM
meas.value: 0.89

compound: O=C(NC(Cc1ccccc1)c1[nH]nc(-c2ccc(F)cc2)c1-c1ccncc1)C1CCC1 (stereo not shown) [Example B-0804]
study.system: human p38 kinase alpha (Homo sapiens, UniProt Q16539)
reading.unit: µM
meas.value: 0.3

compound: CC(NC(=O)c1cccc(F)c1F)c1[nH]nc(-c2ccc(F)cc2)c1-c1ccncc1 (stereo not shown)
study.system: human p38 kinase alpha (Homo sapiens, UniProt Q16539)
reading.unit: µM
meas.value: 0.23

I am curious: what IC50 value has been reported for O=C(NC(Cc1ccccc1)c1[nH]nc(-c2ccc(F)cc2)c1-c1ccncc1)C1CCCN1 (stereo not shown) [Example B-0750] ? 0.92

I am curious: what IC50 value has been reported for O=C(NCCc1[nH]nc(-c2ccc(F)cc2)c1-c1ccncc1)c1ccc(F)c(F)c1 ? 1.07

I am curious: what IC50 value has been reported for CCNC(=O)NC(Cc1ccccc1)c1[nH]nc(-c2ccc(F)cc2)c1-c1ccncc1 (stereo not shown) [Example B-0788] ? 1.2

* * *

molecular target: human p38 kinase alpha (Homo sapiens); construct: GST (N, cleaved yes); made in house; host or cells: E. coli DH10B; test: p38 kinase in vitro assay, phosphorylation of biotinylated PHAS-I with 32P-ATP; format: biochemical; settings: in vitro P38-alpha kinase; read-out: P38 alpha kinase IC50
pIC50: −log10 of the molar value.
pIC50 class ranges: b0 = under 6, b1 = from 6 up to 7, b2 = 7 and over

Worked examples, 3 compounds total:
molecule.smiles: CNC(=O)N1CCC(c2[nH]nc(-c3ccc(F)cc3)c2-c2ccncc2)CC1
discrete.label: b2
//
molecule.smiles: COCC(=O)N1CCC(c2[nH]nc(-c3ccc(F)cc3)c2-c2ccncc2)CC1
discrete.label: b2
//
molecule.smiles: COC(=O)CCCNC(=O)Cn1nc(-c2ccc(F)cc2)c(-c2ccncc2)c1C
discrete.label: b0

Tag the class for O=C(N1CCC(c2[nH]nc(-c3ccc(F)cc3)c2-c2ccncc2)CC1)C(F)(F)F b2

Tag the class for O=C(NCCCc1[nH]nc(-c2ccc(F)cc2)c1-c1ccncc1)NCCc1ccccn1 b2

Tag the class for Cc1c(C)c(S(=O)(=O)NCCCc2[nH]nc(-c3ccc(F)cc3)c2-c2ccncc2)c(C)c2c1OC(C)(C)CC2 b1

Tag the class for CS(=O)(=O)c1ccccc1S(=O)(=O)N1CCC(c2[nH]nc(-c3ccc(F)cc3)c2-c2ccncc2)CC1 b1

Tag the class for O=C(NCCCc1[nH]nc(-c2ccc(F)cc2)c1-c1ccncc1)c1cccs1 b1

Tag the class for Cc1ccc(S(=O)(=O)NCCNC(=O)Cn2nc(-c3ccc(F)cc3)c(-c3ccncc3)c2C)cc1 b0

Tag the class for O=C(NCCCc1[nH]nc(-c2ccc(F)cc2)c1-c1ccncc1)c1cc(F)cc(F)c1 b2

* * *

target: human p38 kinase alpha (Homo sapiens, UniProt Q16539); construct: GST (N, cleaved yes); made in house; host or cells: E. coli DH10B; assay: p38 kinase in vitro assay, phosphorylation of biotinylated PHAS-I with 32P-ATP; assay type: biochemical; details: in vitro P38-alpha kinase; read-out: P38 alpha kinase IC50
Rule: IC50 below 300 nM gives 1 (yes), anything at or above gives 0 (no).

Worked examples, 5 compounds total:
compound: O=S(=O)(c1ccccc1Cl)N1CCC(c2[nH]nc(-c3ccc(F)cc3)c2-c2ccncc2)CC1 [Example B-1457]
discrete.label: 0 (no)
--
compound: COc1ccc(OC)c(S(=O)(=O)NCCCc2[nH]nc(-c3ccc(F)cc3)c2-c2ccncc2)c1 [Example B-1262]
discrete.label: 1 (yes)
--
compound: Cn1cnc(S(=O)(=O)NCCCc2[nH]nc(-c3ccc(F)cc3)c2-c2ccncc2)c1 [Example B-1291]
discrete.label: 1 (yes)
--
compound: O=S(=O)(NCCCc1[nH]nc(-c2ccc(F)cc2)c1-c1ccncc1)c1cc(Cl)c(Cl)s1 [Example B-1257]
discrete.label: 0 (no)
--
compound: Cc1ccccc1C(=O)N1CCC(c2[nH]nc(-c3ccc(F)cc3)c2-c2ccncc2)CC1 [Example B-1400]
discrete.label: 1 (yes)

Decide: IC50 of O=S(=O)(NCCCc1[nH]nc(-c2ccc(F)cc2)c1-c1ccncc1)c1ccc2ccccc2c1 [Example B-1245] strictly below 300 nM? 0 (no)

Decide: IC50 of O=S(=O)(NCCCc1[nH]nc(-c2ccc(F)cc2)c1-c1ccncc1)c1cccc2ccccc12 [Example B-1246] strictly below 300 nM? 1 (yes)

* * *

biological target: human p38 kinase alpha (Homo sapiens); construct: GST (N, cleaved yes); made in house; host or cells: E. coli DH10B; assay: p38 kinase in vitro assay, phosphorylation of biotinylated PHAS-I with 32P-ATP; format: biochemical; conditions: in vitro P38-alpha kinase; read-out: P38 alpha kinase IC50
IC50 values for the compounds below.
Kindly answer with a numeric value in nM, unit omitted.

Here's what some known entries look like.
compound: O=S(=O)(c1ccc(OC(F)(F)F)cc1)N1CCC(c2[nH]nc(-c3ccc(F)cc3)c2-c2ccncc2)CC1 [Example B-1477]
reading.unit: nM
meas.value: 2500

compound: O=C(NCCCc1[nH]nc(-c2ccc(F)cc2)c1-c1ccncc1)c1cc2ccccc2s1 [Example B-1325]
reading.unit: nM
meas.value: 270

compound: CC(C)(C)C(=O)N1CCC(c2[nH]nc(-c3ccc(F)cc3)c2-c2ccncc2)CC1 [Example B-1421]
reading.unit: nM
meas.value: 14

Below: the item to evaluate.
I am curious: what IC50 value has been reported for Cc1c(-c2ccncc2)c(-c2ccc(F)cc2)nn1CC(=O)NCCc1ccc(Cl)c(Cl)c1 [Example B-2303] ? 11
